Assign %, relative to the controls, of 5-HT at dose of 10 mg/kg to each entry below.
System: brain levels of L-5-hydroxytryptophan (L-5-HTP), serotonin (5-HT) and 5-hydroxyindoleacetic acid (5-HIAA)
Test: Biochemical analysis of brain levels of L-5-HTP, 5-HT and 5-HIAA one hour after a single dose (technique of CURZON and GREEN)
Type: in vivo, rats
Conditions: brain level, adult rats, single dose 10 mg/kg, one hour after administration, percentage increase relative to control animals
Description: Biochemical analysis of the brain levles of L-5-hydroxytryptophan (L-5-HTP), serotonin (5-HT) and its first metabolite, 5-hydroxyindoleacetic acid (5- HIAA), was carried out one hour after the administration of a single dose to adult rats by the technique of CURZON and GREEN. Three doses were studied, i.e. 10, 25 and 50 mg/kg, 10 animals being used per dose. Table I below indicates the percentage increases in 5-HTP, 5-HT and 5-HIAA relative to the levels found in the control animals: […]
Square brackets hold non-standard residues; d marks the D form. Peptide text beside a SMILES is read from it. Trp(5-OH) = N[C@@H](Cc1c[nH]c2ccc(O)cc12)C(=O)O
Number first, unit second: that is the form wanted.

Record excerpt, results attached:
COMPOUND	VALUE_MEASURED
N[C@@H](Cc1c[nH]c2ccc(O)cc12)C(=O)N1CCC[C@H]1C(=O)O [Example 11, 5-HYDROXY-L-TRYPTOPHYL-L-PROLINE] (H-[Trp(5-OH)]-Pro-OH)	10%
COC(=O)[C@H](Cc1ccc(O)cc1)NC(=O)[C@@H](N)Cc1c[nH]c2ccc(O)cc12.Cl [Example 5] (H-[Trp(5-OH)]-Tyr-OMe)	12%

Continue with the next compound.
Input: GET /values?readout=%, relative to the controls, of 5-HT at dose of 10 mg/kg&item= N[C@@H](Cc1c[nH]c2ccc(O)cc12)C(=O)NCC(=O)O [Example 19, 5-HYDROXY-L-TRYPTOPHYLGLYCINE] (H-[Trp(5-OH)]-Gly-OH)
Output: 30%

----------
test system: brain levels of L-5-hydroxytryptophan (L-5-HTP), serotonin (5-HT) and 5-hydroxyindoleacetic acid (5-HIAA); experiment: Biochemical analysis of brain levels of L-5-HTP, 5-HT and 5-HIAA one hour after a single dose (technique of CURZON and GREEN); format: in vivo, rats; conditions: Rattus norvegicus, 1 h, read-out: %, relative to the controls, of L-5-HTP at dose of 10 mg/kg
Square brackets hold non-standard residues; d marks the D form. Peptide text beside a SMILES is read from it. Trp(5-OH) = N[C@@H](Cc1c[nH]c2ccc(O)cc12)C(=O)O
ASSAY_ENDPOINT: change in vivo at 10 mg/kg (%)
Answers are plain numbers, in %.

Record excerpt, results attached:
MOLECULE	ASSAY_ENDPOINT	VALUE_MEASURED
C[C@H](NC(=O)[C@@H](N)Cc1c[nH]c2ccc(O)cc12)C(=O)O.O [Example 8, 5-HYDROXY-L-TRYPTOPHYL-L-ALANINE HYDRATE] (H-[Trp(5-OH)]-Ala-OH)	change in vivo at 10 mg/kg	200
N[C@@H](Cc1c[nH]c2ccc(O)cc12)C(=O)N[C@@H](Cc1ccccc1)C(=O)O [Example 12, 5-HYDROXY-L-TRYPTOPHYL-L-PHENYLALANINE] (H-[Trp(5-OH)]-Phe-OH)	change in vivo at 10 mg/kg	170
NC(=O)[C@@H](N)Cc1c[nH]c2ccc(O)cc12.O [Example 21, 5-HYDROXY-L-TRYPT[…], HYDRATE]	change in vivo at 10 mg/kg	125

Continue with the next molecule.
Input: GET /values?readout=change in vivo at 10 mg/kg&item= N[C@@H](Cc1c[nH]c2ccc(O)cc12)C(=O)N[C@@H](CC(=O)O)C(=O)O.O.O.O [Example 2, trihydrate] (H-[Trp(5-OH)]-Asp-OH)
Output: 200

----------
tested on: brain levels of L-5-hydroxytryptophan (L-5-HTP), serotonin (5-HT) and 5-hydroxyindoleacetic acid (5-HIAA); experiment: Biochemical analysis of brain levels of L-5-HTP, 5-HT and 5-HIAA one hour after a single dose (technique of CURZON and GREEN); type: in vivo, rats; details: brain level, adult rats, single dose 10 mg/kg, one hour after administration, percentage increase relative to control animals
Square brackets hold non-standard residues; d marks the D form. Peptide text beside a SMILES is read from it. Trp(5-OH) = N[C@@H](Cc1c[nH]c2ccc(O)cc12)C(=O)O
ASSAY_ENDPOINT: %, relative to the controls, of 5-HIAA at dose of 10 mg/kg (%)
Numbers only, in %.

Record excerpt, results attached:
COMPOUND	SCALE_UNIT	VALUE_MEASURED
COC(=O)[C@H](Cc1c[nH]c2ccc(O)cc12)NC(=O)[C@H](Cc1c[nH]c2ccc(O)cc12)NC(C)=O [Example 7] (Ac-[Trp(5-OH)]-[Trp(5-OH)]-OMe)	%	10
N=C(N)NCCC[C@H](NC(=O)[C@@H](N)Cc1c[nH]c2ccc(O)cc12)C(=O)O [Example 18, 5-Hydroxy-L-tryptophyl-L-arginine] (H-[Trp(5-OH)]-Arg-OH)	%	10
NC(=O)[C@@H](N)Cc1c[nH]c2ccc(O)cc12.O [Example 21, 5-HYDROXY-L-TRYPT[…]]	%	30
CC(C)C[C@H](NC(=O)[C@@H](N)Cc1c[nH]c2ccc(O)cc12)C(=O)O [Example 10, 5-HYDROXY-L-TRYPTOPHYL-L-LEUCINE] (H-[Trp(5-OH)]-Leu-OH)	%	55

Report %, relative to the controls, of 5-HIAA at dose of 10 mg/kg for every entry below.
1. C[C@H](NC(=O)[C@@H](N)Cc1c[nH]c2ccc(O)cc12)C(=O)O.O [Example 8, 5-HYDROXY-L-TRYPTOPHYL-L-ALANINE HYDRATE] (H-[Trp(5-OH)]-Ala-OH)
2. COC(=O)[C@H](Cc1ccc(O)cc1)NC(=O)[C@@H](N)Cc1c[nH]c2ccc(O)cc12.Cl [Example 5] (H-[Trp(5-OH)]-Tyr-OMe)
3. COC(=O)[C@H](Cc1c[nH]cn1)NC(=O)[C@@H](N)Cc1c[nH]c2ccc(O)cc12 [Example 22] (H-[Trp(5-OH)]-His-OMe)

Output:
1. 75
2. 55
3. 40

----------
test system: brain levels of L-5-hydroxytryptophan (L-5-HTP), serotonin (5-HT) and 5-hydroxyindoleacetic acid (5-HIAA); test: Biochemical analysis of brain levels of L-5-HTP, 5-HT and 5-HIAA one hour after a single dose (technique of CURZON and GREEN); type: in vivo, rats; settings: brain level, adult rats, single dose 50 mg/kg, one hour after administration, percentage increase relative to control animals
Square brackets hold non-standard residues; d marks the D form. Peptide text beside a SMILES is read from it. * marks the point of attachment. Trp(5-OH) = N[C@@H](Cc1c[nH]c2ccc(O)cc12)C(=O)O; OtBu = CC(C)(C)O*; tBu = CC(C)(C)*
ASSAY_ENDPOINT: %, relative to the controls, of L-5-HTP at dose of 50 mg/kg (%)
One number for each entry, in %.

Record excerpt, results attached:
> print(dat)
                                   compound  scale.unit  value.measured
1  COC(=O)[C@H](Cc1c[nH]cn1)NC(=O)[C@@H](N)Cc1c[nH]c2ccc(O)cc12 [Example 22] (H-[Trp(5-OH)]-His-OMe)           %             300
2  COC(=O)[C@H](Cc1c[nH]c2ccc(O)cc12)NC(=O)[C@H](Cc1c[nH]c2ccc(O)cc12)NC(C)=O [Example 7] (Ac-[Trp(5-OH)]-[Trp(5-OH)]-OMe)           %              30

Report %, relative to the controls, of L-5-HTP at dose of 50 mg/kg for every entry below.
1. CC(C)(C)OC[C@H](NC(=O)[C@@H](N)Cc1c[nH]c2ccc(O)cc12)C(=O)OC(C)(C)C [Example 15] (H-[Trp(5-OH)]-Ser(tBu)-OtBu)
2. COC(=O)[C@H](Cc1ccc(O)cc1)NC(=O)[C@@H](N)Cc1c[nH]c2ccc(O)cc12.Cl [Example 5] (H-[Trp(5-OH)]-Tyr-OMe)

Output:
1: 900; 2: 1200
